Overview of reported optical density across a group of binders:
target: T1, biotinylated goat anti-human kappa light chain; experiment: ELISA, positive control; further: test concentration or dose not given here
T1 construct: positive control of the ELISA

{"binder": "373_A09 (antibody, V domains shown, Group III) VH: EVQLLESGGGLVQPGGSLRLSCAASGFTFDSYSMNWVRQAPGKGLEWVAGINYNGGYTSYADSVKGRFTISRDNSKNTLYLQMNSLRAEDTAVYYCARGANWHDTALDYWGQGTLVTVSS VL: DIQMTQSPSSLSASVGDRVTITCRASQSILTYLNWYQQKPGKAPKLLIYAATSLASGVPSRFSGSGSGTDFTLTISSLQPEDFATYYCQQSYDTPLTFGGGTKVEIK", "optical density / OD": 3.11}
{"binder": "376_E11 (antibody, V domains shown, Group III) VH: EVQLLESGGGLVQPGGSLRLSCAASGFTFSSYSMNWVRQAPGKGLEWVSGINYNGGYTSYADSVKGRFTISRDNSKNTLYLQMNSLRAEDTAVYYCARGANWHDTALDYWGQGTLVTVSS VL: DIQMTQSPSSLSASVGDRVTITCRASQSILTYVNWYQQKPGKAPKLVIYAATSRASGVPSRFSGSGSGTDFTLTISSLQPEDFATYYCQQSYELPLTFGGGTKVEIK", "optical density / OD": 3.47}
{"binder": "373_C10 (antibody, V domains shown, Group III) VH: EVQLLESGGGLVQPGGSLRLSCAASGFTFSSYSMNWVRQAPGKGLEWVAGINYNGGYTSYADSVKGRFTISRDNSKNTLYLQMNSLRAEDTAVYYCARGANWHDTALDYWGQGTLVTVSS VL: DIQMTQSPSSLSASVGDRVTITCRASQSILTYVNWYQQKPGKAPKLLIYAATSRASGVPSRFSGSGSGTDFTLTISSLQPEDFATYYCQQSYDNPLTFGGGTKVEIK", "optical density / OD": 3.23}
{"binder": "374_C09 (antibody, V domains shown, Group III) VH: EVQLLESGGGLVQPGGSLRLSCAASGFTFDSYGMNWVRQAPGKGLEWVSSINYNGGYKGYADSVKGRFTISRDNSKNTLYLQMNSLRAEDTAVYYCARGANWHDTHLDYWGQGTLVTVSS VL: DIQMTQSPSSLSASVGDRVTITCRASQSIVSYLNWYQQKPGKAPKLVIYAATSRASGVPSRFSGSGSGTDFTLTISSLQPEDFATYYCQQSYELPLTFGGGTKVEIK", "optical density / OD": 3.14}
{"binder": "375_E05 (antibody, V domains shown, Group III) VH: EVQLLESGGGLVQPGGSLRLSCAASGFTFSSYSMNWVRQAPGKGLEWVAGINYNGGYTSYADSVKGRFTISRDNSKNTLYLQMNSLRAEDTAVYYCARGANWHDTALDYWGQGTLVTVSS VL: DIQMTQSPSSLSASVGDRVTITCRASQSILSYLNWYQQKPGKAPKLVIYAATSLASGVPSRFSGSGSGTDFTLTISSLQPEDFATYYCQQSYSSPLTFGGGTKVEIK", "optical density / OD": 3.28}
